The measurements presented in this section are drawn from patent US5521208A.

Provide the reported concentration at 96 h of each item.
Experiment: Plasma pharmacokinetics in rats following a 2 mg/kg intravenous bolus injection
Type: in vivo, male Sprague-Dawley rats
Conditions: rat, plasma, iv, 96 hours, 2 mg/kg i.v. bolus, Mean ± SD (N = 3), ND = Not Detected (lower limit of detection 2 ng/mL)

Request: For the compound COc1cc(F)cc2c1-c1ccc(F)cc1[C@@]21NC(=O)NC1=O [A(+)] , what concentration at 96 h is on record?
Result: 33 ng/mL

Request: For the compound COc1cc(F)cc2c1-c1ccc(F)cc1C21NC(=O)NC1=O (racemic) [A(±)] , what concentration at 96 h is on record?
Result: 17 ng/mL
